- tested on: T1, purified sIL-5Rα (Asp1-Asn313 of SEQ ID NO: 66) (Homo sapiens (Human), UniProt Q01344 21-333)
- T1 construct: also called the purified sIL-5Rα
- T1 sequence: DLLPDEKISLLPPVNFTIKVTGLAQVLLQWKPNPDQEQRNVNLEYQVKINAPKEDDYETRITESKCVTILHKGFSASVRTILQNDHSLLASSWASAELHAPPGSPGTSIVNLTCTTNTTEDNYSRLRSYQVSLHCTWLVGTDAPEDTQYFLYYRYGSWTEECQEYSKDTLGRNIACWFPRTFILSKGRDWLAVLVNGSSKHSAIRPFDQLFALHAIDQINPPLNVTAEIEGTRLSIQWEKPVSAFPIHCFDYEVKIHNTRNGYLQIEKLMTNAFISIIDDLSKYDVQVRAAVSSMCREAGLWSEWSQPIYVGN
- test protocol: BLI (Octet QKe), antibody on AHC sensor, purified sIL-5Rα in solution, 1:1 model
- Method: Specifically, lx kinetic buffer was prepared by diluting 10× kinetic buffer (ForteBio, 18-1105) in PBS. […] Affinity was calculated with Octet Data Analysis software 11.0 in a 1:1 binding model.
Here the recorded pKd is given for each entry.
Field pKd (float): negative decimal logarithm of the concentration in molar.

Below: 6 binders and their reported pKd.
- binder: "5R65.39 (antibody, IgG1, V domains shown, IgG1) VH: QVQLVQSGAEVKKPGSSVKVSCKASGYTFTSYWINWVRQAPGQGLEWIGHIYPNKNENYYNHKFKDKATLTVDKSTNTAYMELSSLRSEDTAVYYCTREFYGRSRYSAMDYWGQGTTLTVSS VL: DIQMTQSPSTLSASVGDRVTITCKASQNVGTAVAWYQQKPGKAPKLLIYWASTRHTGVPDRFSGSGSGTDFTLTISSLQPDDFATYYCQQFGRYPYTFGSGTKVEVK"
  reported: 8.21
- binder: "5R65.7 (antibody, IgG1, V domains shown, IgG1) VH: QVQLVQSGAEVKKPGSSVKVSCKASGYTFTSYWINWVRQAPGQGLEWIGHIYPNKNENYYNHKFKDKATLTVDKSTNTAYMELSSLRSEDTAVYYCTREFYGRQYYQAMDYWGQGTTLTVSS VL: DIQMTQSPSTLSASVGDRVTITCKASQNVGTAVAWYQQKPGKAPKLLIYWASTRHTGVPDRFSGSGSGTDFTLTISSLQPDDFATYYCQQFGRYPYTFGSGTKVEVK"
  reported: 8.33
- binder: "5R65.14 (antibody, IgG1, V domains shown, IgG1) VH: QVQLVQSGAEVKKPGSSVKVSCKASGYTFTSYWINWVRQAPGQGLEWIGHIYPNKNENYYNHKFKDKATLTVDKSTNTAYMELSSLRSEDTAVYYCTREHYGRPYYNAMDYWGQGTTLTVSS VL: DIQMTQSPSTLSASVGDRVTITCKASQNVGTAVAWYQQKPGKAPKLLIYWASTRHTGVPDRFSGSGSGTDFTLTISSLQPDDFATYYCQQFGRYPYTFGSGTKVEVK"
  reported: 8.06
- binder: "5R65.45 (antibody, IgG1, V domains shown, IgG1) VH: QVQLVQSGAEVKKPGSSVKVSCKASGYTFTSYWINWVRQAPGQGLEWIGHIYPNKNENYYNHKFKDKATLTVDKSTNTAYMELSSLRSEDTAVYYCTREYYGRSYYNAMDYWGQGTTLTVSS VL: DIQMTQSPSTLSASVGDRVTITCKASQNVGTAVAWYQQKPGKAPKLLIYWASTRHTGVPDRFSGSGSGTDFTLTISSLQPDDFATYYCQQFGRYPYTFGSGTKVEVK"
  reported: 8.14
- binder: "5R65.10 (antibody, IgG1, V domains shown, IgG1) VH: QVQLVQSGAEVKKPGSSVKVSCKASGYTFTSYWINWVRQAPGQGLEWIGHIYPNKNENYYNHKFKDKATLTVDKSTNTAYMELSSLRSEDTAVYYCTREYYGRSYYAAMDYWGQGTTLTVSS VL: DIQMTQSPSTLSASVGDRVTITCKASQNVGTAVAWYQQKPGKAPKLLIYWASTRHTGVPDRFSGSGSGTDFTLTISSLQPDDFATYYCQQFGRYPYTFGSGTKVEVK"
  reported: 8.08
- binder: "5R65 (antibody, V domains shown, IgG1 (variable regions in a pcDNA3.4 vector encoding IgG1 constant regions); also called anti-IL-5Rα humanized antibody 5R65; anti-IL-5Rα antibody (5R65)) VH: QVQLVQSGAEVKKPGSSVKVSCKASGYTFTSYWINWVRQAPGQGLEWIGHIYPNKNENYYNHKFKDKATLTVDKSTNTAYMELSSLRSEDTAVYYCTRDYYGRSYYYAMDYWGQGTTLTVSS VL: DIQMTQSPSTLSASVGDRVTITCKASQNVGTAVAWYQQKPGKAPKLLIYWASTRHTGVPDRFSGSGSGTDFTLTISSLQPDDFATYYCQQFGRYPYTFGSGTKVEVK"
  reported: 7.84

Task item: For the binder 5R65.18 (antibody, IgG1, V domains shown, IgG1) VH: QVQLVQSGAEVKKPGSSVKVSCKASGYTFTSYWINWVRQAPGQGLEWIGHIYPNKNENYYNHKFKDKATLTVDKSTNTAYMELSSLRSEDTAVYYCTREYYGRTYYSAMDYWGQGTTLTVSS VL: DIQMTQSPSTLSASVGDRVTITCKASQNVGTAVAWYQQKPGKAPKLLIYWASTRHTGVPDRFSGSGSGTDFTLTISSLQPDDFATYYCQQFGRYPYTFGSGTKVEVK , report pKd.
Reply: 8.23
